# assay.system: UniProt:P20292
# method.summary: FLAP binding assay (HTRF format)
# reported.conditions: Table 6 (additional runs), human FLAP wild type
readout.kind: Ki (nM)
Answers are plain numbers, in nM.

In [3]: df
Out[3]:
                                   compound  recorded_number
0  C[C@H](CO)NS(=O)(=O)c1ccccc1-c1ccc(-c2cnc3c(c2)OCCN3)c(F)c1              0.4
1  O=C1NCC[C@@H]1NS(=O)(=O)c1ccccc1-c1ccc(-c2cnc3[nH]ccc3c2)c(F)c1              2.5
2  CNS(=O)(=O)c1ccccc1-c1ccc(-c2cnc(N)cn2)c(F)c1             11.1
3  CC(C)(C)OC(=O)NC1CCCN(S(=O)(=O)c2ccccc2-c2ccc(-c3cnc(N)cn3)c(F)c2)C1 (racemic)              3.2
4  CC[C@H](CO)NS(=O)(=O)c1ccccc1-c1ccc(-c2cnc(N)cn2)c(F)c1              2.6
5  Nc1cnc(-c2ccc(-c3ccccc3S(=O)(=O)N3c4ccccc4C[C@H]3CO)cc2F)cn1              0.4
6  Nc1cnc(-c2ccc(-c3ccccc3S(=O)(=O)N[C@H](CO)Cc3ccccc3)cc2F)cn1              0.7

Read the entry `Nc1cnc(-c2ccc(-c3ccccc3S(=O)(=O)N[C@@H]3CCCC[C@H]3O)cc2F)cn1` and write its reported Ki. 1.9

* * *

# assay.system: human FLAP (Homo sapiens (Human), UniProt P20292)
# Sequence (P20292 whole entry): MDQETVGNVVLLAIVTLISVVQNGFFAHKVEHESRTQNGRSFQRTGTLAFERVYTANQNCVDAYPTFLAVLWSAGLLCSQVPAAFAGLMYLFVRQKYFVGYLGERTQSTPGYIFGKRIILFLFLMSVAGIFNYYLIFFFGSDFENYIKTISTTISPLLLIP
# method.summary: FLAP binding assay (HTRF format)
# reported.conditions: human FLAP wild type, Table 6 (additional runs)
Structures can show the parent of a compound that is named as a salt.
Lab note - cut at 70 nM for Ki: true if strictly below, false if not.

Input C[C@H](NS(=O)(=O)c1ccccc1-c1ccc(-c2cnc(N)nc2)nc1)C(F)(F)F [Example 685, trifluoroacetic acid salt] ; condition: Ki strictly below 70 nM. Does it hold? true

Input C[C@@H](CO)NS(=O)(=O)c1ccccc1-c1cnc(-c2cnc(N)nc2)c(F)c1 [Example 880] ; condition: Ki strictly below 70 nM. Does it hold? false

Input Nc1cnc(-c2ccc(-c3ccc(C(F)(F)F)cc3F)cc2F)cn1 [Example 471] ; condition: Ki strictly below 70 nM. Does it hold? true

Input Nc1ncc(-c2ccc(-c3cccnc3S(=O)(=O)c3ccccc3)cc2F)cn1 [Example 898] ; condition: Ki strictly below 70 nM. Does it hold? false

Input C[C@H]1COCCN1C(=O)c1ccccc1-c1ccc(-c2cnc(N)cn2)c(F)c1 [Example 774] ; condition: Ki strictly below 70 nM. Does it hold? false

Input CC(C)(C)NS(=O)(=O)c1ccccc1-c1ccc(-c2nnc(N)s2)c(F)c1 [Example 438] ; condition: Ki strictly below 70 nM. Does it hold? true

Input Nc1cnc(-c2ccc(-c3cccnc3Oc3cccnc3)cc2F)cn1 [Example 896] ; condition: Ki strictly below 70 nM. Does it hold? true

Input CC(C)(C)NS(=O)(=O)c1ccccc1-c1ccc(-c2cnc(N)cn2)cc1 [Example 571] ; condition: Ki strictly below 70 nM. Does it hold? true

Input CC(C)(C)NS(=O)(=O)c1ccccc1-c1ccc(-c2cnc3[nH]cc(CO)c3c2)c(F)c1 [Example 455] ; condition: Ki strictly below 70 nM. Does it hold? true

Input CC(C)(C)NS(=O)(=O)c1ccccc1-c1cnc(-c2cnc(N)nc2)c(F)c1 [Example 675] ; condition: Ki strictly below 70 nM. Does it hold? true

Input Nc1cnc(-c2ccc(-c3ccc(C(F)(F)F)cc3N)cc2F)cn1 [Example 892] ; condition: Ki strictly below 70 nM. Does it hold? false

Input Cc1ccccc1-c1ccc(-c2cnc(N)cn2)c(F)c1 [Example 470] ; condition: Ki strictly below 70 nM. Does it hold? false

Input CC(O)CNS(=O)(=O)c1ccccc1-c1ccc(-c2cnc(N)c(C#N)n2)c(F)c1 (stereo in doubt) [Example 415] ; condition: Ki strictly below 70 nM. Does it hold? true

Input CC(=O)N1CCC(S(=O)(=O)c2ncccc2-c2ccc(-c3cnc(N)cn3)c(F)c2)CC1 [Example 816] ; condition: Ki strictly below 70 nM. Does it hold? true

Input Nc1cnc(-c2ccc(-c3ccccc3OCc3ccc(C(=O)O)cc3)cc2F)cn1 [Example 886] ; condition: Ki strictly below 70 nM. Does it hold? true

Input Nc1nc(-c2ccc(-c3ccccc3S(=O)(=O)N3CCCC3)cc2F)cs1 [Example 579] ; condition: Ki strictly below 70 nM. Does it hold? false

* * *

# Test system: leukotriene pathway in human whole blood (LTB4)
# method.summary: Human whole blood assay (LTB4 levels after calcium ionophore A23187 stimulation)
# Type: cell-based
# reported.conditions: Homo sapiens, Table 6 (additional runs); human whole blood diluted 1:1, A23187 stimulation; read-out: Human Whole Blood LTB4 IC50 1:1
pIC50: −log10 of the molar value.
Please mark Yes if the recorded pIC50 is equal to or greater than 8, and No if it falls below.

Please review the entries below; each comes with its answer.
>>> df
                                smiles_code  label_value
0  CC(C)N(CCO)S(=O)(=O)c1ccccc1-c1ccc(-c2cnc(N)cn2)c(F)c1          Yes
1  C[C@@H](CO)NS(=O)(=O)c1ccccc1-c1ccc(-c2cnc(N)cn2)c(F)c1           No
2  C[C@@H](CO)NS(=O)(=O)c1ccccc1-c1ccc(-c2ccc(N)nc2)c(F)c1           No

Please turn your attention to the following entry.
Reported pIC50 at or above 8? `Nc1cnc(-c2ccc(-c3ccccc3S(=O)(=O)C3CCCC3)cc2F)cn1` No

* * *

# assay.system: human FLAP (Homo sapiens (Human), UniProt P20292)
# method.summary: FLAP binding assay (HTRF format)
# reported.conditions: Table 6 (additional runs), human FLAP wild type
readout.kind: pKi
Answers are plain numbers, as −log10 of the molar value.

                                smiles_code  readout_kind  recorded_number
0  CC1(NS(=O)(=O)c2ccccc2-c2ccc(-c3cnc(N)cn3)c(F)c2)CCC1           pKi             8.80
1  Nc1cnc(-c2ccc(-c3ccccc3S(=O)(=O)N[C@H]3c4ccccc4C[C@H]3O)cc2F)cn1           pKi             9.40
2  Nc1cnc(-c2ccc(-c3ccccc3NS(=O)(=O)C3CC3)cc2F)cn1           pKi             7.54

Read the entry `Nc1ncc(-c2ccc(-c3ccccc3S(=O)(=O)Cc3nc(C4CC4)no3)cc2F)cn1` and write its reported pKi. 6.30

* * *

# assay.system: human FLAP (Homo sapiens (Human), UniProt P20292)
# method.summary: FLAP binding assay (HTRF format)
# reported.conditions: Table 5, human FLAP wild type
Structures can show the parent of a compound that is named as a salt.
readout.kind: pKi
Give bare numbers, as −log10 of the molar value.

Read the entry Nc1cnc(-c2ccc(-c3cccnc3S(=O)(=O)C3CCNC3)cc2F)cn1 (racemic) [Example 803, hydrochloride] and write its reported pKi. 6.97

* * *

# assay.system: human FLAP (Homo sapiens (Human))
# method.summary: FLAP binding assay (HTRF format)
# reported.conditions: human FLAP wild type, Table 6 (additional runs)
Where a name gives a salt, the structure may show the parent alone.
Kindly supply the reported pKi values for the records listed here.
One number for each entry, as −log10 of the molar value.

In [3]: df
Out[3]:
                                   compound                       assay_system  readout_kind  recorded_number
0  Nc1cnc(-c2ccc(-c3ccccc3Oc3cc(N4CCC4)ncn3)cc2F)cn1 [Example 539]  human FLAP (Homo sapiens (Human))           pKi             8.80

Please give pKi, item by item, for the list that follows.
1. Nc1cnc(-c2ccc(-c3ccccc3-c3cnc(N4CCNCC4)nc3)cc2F)cn1 [Example 862]
2. CNc1ncc(-c2ccccc2-c2ccc(-c3cnc(N)cn3)c(F)c2)cn1 [Example 872]
3. CN1CCC(S(=O)(=O)c2ncccc2-c2ccc(-c3cnc(N)cn3)c(F)c2)C1 (stereo not shown) [Example 900]

1. 6.91
2. 8.08
3. 7.45

Please give pKi, item by item, for the list that follows.
1. C[C@H]1CN(C(=O)c2ccccc2-c2ccc(-c3cnc(N)cn3)c(F)c2)CCO1 [Example 776]
2. Cc1nc(-c2ccc(-c3ccccc3S(N)(=O)=O)cc2F)cnc1N [Example 446]
3. CC(C)(C)NS(=O)(=O)c1ccccc1-c1ccc(-c2cnc(N)c(Br)n2)c(F)c1 [Example 442]
4. NC(=O)c1ccc(Oc2ccccc2-c2ccc(-c3cnc(N)nc3)c(F)c2)cc1 [Example 890]
5. Nc1ncc(-c2ccc(-c3ccccc3Oc3ccc(C(=O)O)cc3)cc2F)cn1 [Example 889]
6. Nc1cnc(-c2ccc(-c3cccnc3S(=O)(=O)C3CCNC3)cc2F)cn1 (racemic) [Example 803, hydrochloride]
7. CC(C)c1ccccc1-c1ccc(-c2cnc(N)cn2)c(F)c1 [Example 482]
8. C[C@H](NS(=O)(=O)c1ccccc1-c1cnc(-c2cnc(N)nc2)c(F)c1)C(F)(F)F [Example 877, hydrochloride salt]

6.82
6.52
9.05
8.43
8.41
6.97
7.22
8.33

Please give pKi, item by item, for the list that follows.
1. Nc1cnc(-c2ccc(-c3ccccc3S(N)(=O)=O)c(F)c2F)cn1 [Example 464]
2. Nc1ccnc(Oc2cc(C(F)(F)F)ccc2-c2ccc(-c3cnc(N)nc3)c(F)c2)n1 [Example 559]
3. C[C@@H]1COCCN1C(=O)c1ccccc1-c1ccc(-c2cnc(N)cn2)c(F)c1 [Example 775]
4. CC(C)S(=O)(=O)c1nc(C(F)(F)F)ccc1-c1ccc(-c2cnc(N)cn2)c(F)c1 [Example 901]
5. Nc1ncc(-c2ccc(-c3ccccc3-c3ccnc(N)n3)cc2F)cn1 [Example 867]
6. CS(=O)(=O)N1CCC(S(=O)(=O)c2ncccc2-c2ccc(-c3cnc(N)nc3)c(F)c2)CC1 [Example 909]
7. Nc1cc(Oc2cc(C(F)(F)F)ccc2-c2ccc(-c3cnc(N)nc3)c(F)c2)ncn1 [Example 561]

1: 6.92; 2: 8.82; 3: 7.52; 4: 8.74; 5: 6.61; 6: 6.60; 7: 8.36

Please give pKi, item by item, for the list that follows.
1. Nc1ncc(-c2ccc(-c3ccccc3-c3cn[nH]c3)cc2F)cn1 [Example 876]
2. Nc1ccc(-c2ccccc2-c2ccc(-c3cnc(N)nc3)c(F)c2)cn1 [Example 865]

7.10
7.02

The origin of these recorded values is patent US9745328B2.
